tested on: Xanthomonas arboricola pv. pruni CFBP5563; test: In vitro growth inhibition (MIC); format: cell-based; conditions: TSB, 25°C, 48 h, OD 600 nm (Bioscreen C), three replicates, experiment repeated twice; MIC given as range
No end group written: not given here.
Form field: MIC, Xap (one value per entry).

{"substance": "H-RINSAKDDAAGLQIAKKLFKKILKKL-NH2 [flg15-BP16]", "targetSystem": "Xanthomonas arboricola pv. pruni CFBP5563", "MIC, Xap": "3.1 to 6.2 µM"}

Task item: Could you tell me which MIC, Xap is on file for VWNQPVRGFKVYEKKLFKKILKYL-NH2 [Pep13-BP100] ?
Reply: 0.8 to 1.6 µM

Task item: Could you tell me which MIC, Xap is on file for FKLFKKILKVL-KKLFKKILKKL-NH2 [BP13-BP16, peptide conjugate, BP13 at N-terminus, BP16 at C-terminus] ?
Reply: 6.2 to 12.5 µM

Task item: Could you tell me which MIC, Xap is on file for KKLFKKILKYL-FKLFKKILKVL-NH2 [BP100-BP13, peptide conjugate, BP100 at N-terminus, BP13 at C-terminus] ?
Reply: 12.5 to 25 µM

Reference source: paper PMC9238401
